The measured values listed here are drawn from the supplement of paper PMC10567573.

B1: GNB5 (parent)
chain: DINSVRYYPSGDAFASGSDDATCR

Variants of: B1
Test: protein stability index of a GFP-peptide fusion (GPS, HEK-293T) (PSI 1-6); higher = more stable;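 further: lentivirally expressed fusions sorted by FACS into six bins by GFP to DsRed ratio, PSI derived from sequencing read proportions per bin multiplied by bin number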
Conditions: c terminus: a fixed tail appended
measured.attribute: protein stability index

[[record]]
sequence_data = "DINSVRYDPSGDAFASGSDDATCR [Y8D]"
measured_attribute = "protein stability index"
data_value = 4.87

[[record]]
sequence_data = "DINSVRYYPSGDAFASGLDDATCR [S18L]"
measured_attribute = "protein stability index"
data_value = 3.55

[[record]]
sequence_data = "DINSIRYYPSGDAFASGSDDATCR [V5I]"
measured_attribute = "protein stability index"
data_value = 4.19

[[record]]
sequence_data = "DINSVRYYPSADAFASGSDDATCR [G11A]"
measured_attribute = "protein stability index"
data_value = 3.61

[[record]]
sequence_data = "DINSVRYYPSGDAFASGSDDHTCR [A21H]"
measured_attribute = "protein stability index"
data_value = 3.62

[[record]]
sequence_data = "IINSVRYYPSGDAFASGSDDATCR [D1I]"
measured_attribute = "protein stability index"
data_value = 3.48

[[record]]
sequence_data = "DINSVRYYPSGDAFNSGSDDATCR [A15N]"
measured_attribute = "protein stability index"
data_value = 4.12

[[record]]
sequence_data = "DINSVRYYPSGDAFANGSDDATCR [S16N]"
measured_attribute = "protein stability index"
data_value = 4.15

[[record]]
sequence_data = "DINSVRYYPSGDAFASGRDDATCR [S18R]"
measured_attribute = "protein stability index"
data_value = 3.12

[[record]]
sequence_data = "DIRSVRYYPSGDAFASGSDDATCR [N3R]"
measured_attribute = "protein stability index"
data_value = 4.55

[[record]]
sequence_data = "DINSVRYYPSGDAFASISDDATCR [G17I]"
measured_attribute = "protein stability index"
data_value = 3.21

[[record]]
sequence_data = "DINSVRYYPSGDLFASGSDDATCR [A13L]"
measured_attribute = "protein stability index"
data_value = 3.44

[[record]]
sequence_data = "DINSVGYYPSGDAFASGSDDATCR [R6G]"
measured_attribute = "protein stability index"
data_value = 4.3

[[record]]
sequence_data = "DINSVRYYPSGDAFRSGSDDATCR [A15R]"
measured_attribute = "protein stability index"
data_value = 2.99

[[record]]
sequence_data = "DINNVRYYPSGDAFASGSDDATCR [S4N]"
measured_attribute = "protein stability index"
data_value = 3.55

[[record]]
sequence_data = "DINSVRYYPSLDAFASGSDDATCR [G11L]"
measured_attribute = "protein stability index"
data_value = 3.9

[[record]]
sequence_data = "DINSVRYYPSGDAFASRSDDATCR [G17R]"
measured_attribute = "protein stability index"
data_value = 3.65

[[record]]
sequence_data = "AINSVRYYPSGDAFASGSDDATCR [D1A]"
measured_attribute = "protein stability index"
data_value = 4.18

[[record]]
sequence_data = "DINSTRYYPSGDAFASGSDDATCR [V5T]"
measured_attribute = "protein stability index"
data_value = 4.28

[[record]]
sequence_data = "DINSVRYYPSGDAFASGNDDATCR [S18N]"
measured_attribute = "protein stability index"
data_value = 4

[[record]]
sequence_data = "DINSVFYYPSGDAFASGSDDATCR [R6F]"
measured_attribute = "protein stability index"
data_value = 3.57

[[record]]
sequence_data = "DINSVRYYPSGDAMASGSDDATCR [F14M]"
measured_attribute = "protein stability index"
data_value = 3.85

[[record]]
sequence_data = "DINSVRYYPGGDAFASGSDDATCR [S10G]"
measured_attribute = "protein stability index"
data_value = 4.35

[[record]]
sequence_data = "DINSVRYYGSGDAFASGSDDATCR [P9G]"
measured_attribute = "protein stability index"
data_value = 4.13

[[record]]
sequence_data = "DINSVRYYPSGDAFSSGSDDATCR [A15S]"
measured_attribute = "protein stability index"
data_value = 3.66

[[record]]
sequence_data = "DYNSVRYYPSGDAFASGSDDATCR [I2Y]"
measured_attribute = "protein stability index"
data_value = 4.32

[[record]]
sequence_data = "DINSVRYYPSGDAFAHGSDDATCR [S16H]"
measured_attribute = "protein stability index"
data_value = 3.84

[[record]]
sequence_data = "DINSVRPYPSGDAFASGSDDATCR [Y7P]"
measured_attribute = "protein stability index"
data_value = 4.46

[[record]]
sequence_data = "DINSVRYYPSGNAFASGSDDATCR [D12N]"
measured_attribute = "protein stability index"
data_value = 3.06

[[record]]
sequence_data = "DINSVRYYPSGDAFASGSDQATCR [D20Q]"
measured_attribute = "protein stability index"
data_value = 3.69

[[record]]
sequence_data = "DINSVRYYPSGDAFASGSSDATCR [D19S]"
measured_attribute = "protein stability index"
data_value = 3.4

[[record]]
sequence_data = "DINSVRHYPSGDAFASGSDDATCR [Y7H]"
measured_attribute = "protein stability index"
data_value = 4.38

[[record]]
sequence_data = "DINSVRYYPSGDEFASGSDDATCR [A13E]"
measured_attribute = "protein stability index"
data_value = 4.66

[[record]]
sequence_data = "DINSVRYYPSGFAFASGSDDATCR [D12F]"
measured_attribute = "protein stability index"
data_value = 2.69

[[record]]
sequence_data = "DINSVRYYPSGDAFASGSCDATCR [D19C]"
measured_attribute = "protein stability index"
data_value = 2.85

[[record]]
sequence_data = "DINSVRYYPSGDAFASGSDDAPCR [T22P]"
measured_attribute = "protein stability index"
data_value = 3.56

[[record]]
sequence_data = "DINSVRGYPSGDAFASGSDDATCR [Y7G]"
measured_attribute = "protein stability index"
data_value = 4.39

[[record]]
sequence_data = "DINSVRYHPSGDAFASGSDDATCR [Y8H]"
measured_attribute = "protein stability index"
data_value = 3.78

[[record]]
sequence_data = "DINSVVYYPSGDAFASGSDDATCR [R6V]"
measured_attribute = "protein stability index"
data_value = 3.91

[[record]]
sequence_data = "DINSVRYYPSGDKFASGSDDATCR [A13K]"
measured_attribute = "protein stability index"
data_value = 3.53

[[record]]
sequence_data = "DINSVRYYPSGGAFASGSDDATCR [D12G]"
measured_attribute = "protein stability index"
data_value = 3.54

[[record]]
sequence_data = "DINHVRYYPSGDAFASGSDDATCR [S4H]"
measured_attribute = "protein stability index"
data_value = 4.07

[[record]]
sequence_data = "DINSVRYYPSGDVFASGSDDATCR [A13V]"
measured_attribute = "protein stability index"
data_value = 3.69

[[record]]
sequence_data = "DINSVRYCPSGDAFASGSDDATCR [Y8C]"
measured_attribute = "protein stability index"
data_value = 4.43

[[record]]
sequence_data = "DINSVRYYPSGDAFASGQDDATCR [S18Q]"
measured_attribute = "protein stability index"
data_value = 3.81

[[record]]
sequence_data = "DINAVRYYPSGDAFASGSDDATCR [S4A]"
measured_attribute = "protein stability index"
data_value = 3.95

[[record]]
sequence_data = "DINSVRLYPSGDAFASGSDDATCR [Y7L]"
measured_attribute = "protein stability index"
data_value = 3.61

[[record]]
sequence_data = "DINSVRYYPLGDAFASGSDDATCR [S10L]"
measured_attribute = "protein stability index"
data_value = 3.43

[[record]]
sequence_data = "DINSVRYYMSGDAFASGSDDATCR [P9M]"
measured_attribute = "protein stability index"
data_value = 3.3

[[record]]
sequence_data = "DINSVRYYPSGDAFASPSDDATCR [G17P]"
measured_attribute = "protein stability index"
data_value = 4.05

[[record]]
sequence_data = "DINSVRYYPSGDNFASGSDDATCR [A13N]"
measured_attribute = "protein stability index"
data_value = 3.98

[[record]]
sequence_data = "DINSVRYYPSGDDFASGSDDATCR [A13D]"
measured_attribute = "protein stability index"
data_value = 4.47

[[record]]
sequence_data = "DINSVRYYPSGDAFASGWDDATCR [S18W]"
measured_attribute = "protein stability index"
data_value = 3.02

[[record]]
sequence_data = "DINSVRYYRSGDAFASGSDDATCR [P9R]"
measured_attribute = "protein stability index"
data_value = 3.69

[[record]]
sequence_data = "DINSVRYYPSGDAFASGSDDAYCR [T22Y]"
measured_attribute = "protein stability index"
data_value = 2.94

[[record]]
sequence_data = "DINSVEYYPSGDAFASGSDDATCR [R6E]"
measured_attribute = "protein stability index"
data_value = 5.13

[[record]]
sequence_data = "DINSVRYYPSGDAFASGSEDATCR [D19E]"
measured_attribute = "protein stability index"
data_value = 4.15

[[record]]
sequence_data = "DINSVRYYPSGDAFASASDDATCR [G17A]"
measured_attribute = "protein stability index"
data_value = 3.74

[[record]]
sequence_data = "DINSVRYRPSGDAFASGSDDATCR [Y8R]"
measured_attribute = "protein stability index"
data_value = 4.65

[[record]]
sequence_data = "DIESVRYYPSGDAFASGSDDATCR [N3E]"
measured_attribute = "protein stability index"
data_value = 4.52

[[record]]
sequence_data = "DINLVRYYPSGDAFASGSDDATCR [S4L]"
measured_attribute = "protein stability index"
data_value = 3.42

[[record]]
sequence_data = "DINSVRYLPSGDAFASGSDDATCR [Y8L]"
measured_attribute = "protein stability index"
data_value = 4.39

[[record]]
sequence_data = "DVNSVRYYPSGDAFASGSDDATCR [I2V]"
measured_attribute = "protein stability index"
data_value = 3.93

[[record]]
sequence_data = "DINSVRYYPSGDAFASGFDDATCR [S18F]"
measured_attribute = "protein stability index"
data_value = 3.26

[[record]]
sequence_data = "DINSDRYYPSGDAFASGSDDATCR [V5D]"
measured_attribute = "protein stability index"
data_value = 4.41

[[record]]
sequence_data = "DINSVRYYPSGDAFAKGSDDATCR [S16K]"
measured_attribute = "protein stability index"
data_value = 3.34

[[record]]
sequence_data = "DINSVRYYPSGDAFASGSDDQTCR [A21Q]"
measured_attribute = "protein stability index"
data_value = 3.98

[[record]]
sequence_data = "DINSVRYYPSGDAFASGSDDRTCR [A21R]"
measured_attribute = "protein stability index"
data_value = 3.63

[[record]]
sequence_data = "DINSVRYYPSGDAFASGSQDATCR [D19Q]"
measured_attribute = "protein stability index"
data_value = 3.75

[[record]]
sequence_data = "DINSYRYYPSGDAFASGSDDATCR [V5Y]"
measured_attribute = "protein stability index"
data_value = 3.6

[[record]]
sequence_data = "DINSVRYYPSGDAFAGGSDDATCR [S16G]"
measured_attribute = "protein stability index"
data_value = 4.28

[[record]]
sequence_data = "DINSARYYPSGDAFASGSDDATCR [V5A]"
measured_attribute = "protein stability index"
data_value = 4.38

[[record]]
sequence_data = "DINSVRYYASGDAFASGSDDATCR [P9A]"
measured_attribute = "protein stability index"
data_value = 3.59

[[record]]
sequence_data = "DINSVRYYPSGDAFASSSDDATCR [G17S]"
measured_attribute = "protein stability index"
data_value = 3.84

[[record]]
sequence_data = "DIMSVRYYPSGDAFASGSDDATCR [N3M]"
measured_attribute = "protein stability index"
data_value = 3.42

[[record]]
sequence_data = "DINSVRYYPSGDAFESGSDDATCR [A15E]"
measured_attribute = "protein stability index"
data_value = 4.09

[[record]]
sequence_data = "DINSVRYYPSGSAFASGSDDATCR [D12S]"
measured_attribute = "protein stability index"
data_value = 3.46

[[record]]
sequence_data = "DIHSVRYYPSGDAFASGSDDATCR [N3H]"
measured_attribute = "protein stability index"
data_value = 4.43

[[record]]
sequence_data = "DINSVRYYPSCDAFASGSDDATCR [G11C]"
measured_attribute = "protein stability index"
data_value = 3.23

[[record]]
sequence_data = "DINSVRYYPSGDAFASGSDDAWCR [T22W]"
measured_attribute = "protein stability index"
data_value = 3

[[record]]
sequence_data = "DINSVRYYPSGDAFASGSDDFTCR [A21F]"
measured_attribute = "protein stability index"
data_value = 3.3

[[record]]
sequence_data = "DINSVRYYPSGDAFASGSDYATCR [D20Y]"
measured_attribute = "protein stability index"
data_value = 2.6

[[record]]
sequence_data = "DINSVRYYPSGDAFASGEDDATCR [S18E]"
measured_attribute = "protein stability index"
data_value = 4.43

[[record]]
sequence_data = "WINSVRYYPSGDAFASGSDDATCR [D1W]"
measured_attribute = "protein stability index"
data_value = 2.68

[[record]]
sequence_data = "DINSVRYYPSGDAFASGSDDATCH [R24H]"
measured_attribute = "protein stability index"
data_value = 4.29

[[record]]
sequence_data = "DINSVRYYPSGDAFASGSDDATYR [C23Y]"
measured_attribute = "protein stability index"
data_value = 3.9

[[record]]
sequence_data = "DINDVRYYPSGDAFASGSDDATCR [S4D]"
measured_attribute = "protein stability index"
data_value = 4.53

[[record]]
sequence_data = "DINSVCYYPSGDAFASGSDDATCR [R6C]"
measured_attribute = "protein stability index"
data_value = 3.9

[[record]]
sequence_data = "DINSVRYYPSGHAFASGSDDATCR [D12H]"
measured_attribute = "protein stability index"
data_value = 3.34

[[record]]
sequence_data = "DINSVRYYPSGDAFASGSDDADCR [T22D]"
measured_attribute = "protein stability index"
data_value = 3.76

[[record]]
sequence_data = "DINSVRYYPSGDAFASGSDDALCR [T22L]"
measured_attribute = "protein stability index"
data_value = 3.72

[[record]]
sequence_data = "DINSVRYYPSGDARASGSDDATCR [F14R]"
measured_attribute = "protein stability index"
data_value = 3.64

